// data source = patent US20160031999A1

TESTED ON: T1, human IL-11Rα on transfected cells (human, UniProt Q14626 23-422)
T1 sequence: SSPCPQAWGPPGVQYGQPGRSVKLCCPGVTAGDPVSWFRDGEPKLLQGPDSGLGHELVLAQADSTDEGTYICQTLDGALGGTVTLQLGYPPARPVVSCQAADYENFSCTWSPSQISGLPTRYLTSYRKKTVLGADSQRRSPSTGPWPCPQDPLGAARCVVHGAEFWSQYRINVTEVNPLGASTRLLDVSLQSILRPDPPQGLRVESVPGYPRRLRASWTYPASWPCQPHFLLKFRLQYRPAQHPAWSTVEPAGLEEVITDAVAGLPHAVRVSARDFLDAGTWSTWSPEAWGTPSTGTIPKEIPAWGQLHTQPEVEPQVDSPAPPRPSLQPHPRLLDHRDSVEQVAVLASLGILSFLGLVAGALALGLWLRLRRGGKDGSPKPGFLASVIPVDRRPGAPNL
PROTOCOL TEXT: cell-based or functional assay
OUTCOME MEASURE: IC50 (µg/mL)
// units = µg/mL; emit number, no label

Some solved cases for reference:
1. hu8E2-TS-6 (antibody, V domains shown) VH: EVQLLESGGGLVQPGGSLRLSCAASGFTFSWYSMTWVRQAPGKGLEWVSSIVPSGGHTQYADSVKGRFTISRDNSKNTLYLQMNSLRAEDTAVYYCAKGPGWGSFDLWGRGTLVTVSS VL: DIQMTQSPSSLSASVGDRVTITCQASQDINNYLNWYQQKPGKAPKLLIYDASNLQTGVPSRFSGSGSGTDFTFTISSLQPEDIATYYCEQFESQSPTFGPGTKVDIK    0.41
2. hu8E2-TS-20 (antibody, V domains shown) VH: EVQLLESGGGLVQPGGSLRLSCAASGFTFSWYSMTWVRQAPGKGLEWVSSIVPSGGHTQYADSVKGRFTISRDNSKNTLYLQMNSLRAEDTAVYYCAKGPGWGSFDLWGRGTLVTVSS VL: DIQMTQSPSSLSASVGDRVTITCQASQDINNYLNWYQQKPGKAPKLLIYDASNLQTGVPSRFSGSGSGTDFTFTISSLQPEDIATYYCQQNESQSPTFGPGTKVDIK    1.3

Please look at the following binder next.
Request: Bench note: what IC50 did hu8E2-TS-22 (antibody, V domains shown) VH: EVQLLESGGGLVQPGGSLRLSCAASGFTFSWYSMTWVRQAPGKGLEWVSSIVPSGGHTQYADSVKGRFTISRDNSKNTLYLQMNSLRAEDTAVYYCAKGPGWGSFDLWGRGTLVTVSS VL: DIQMTQSPSSLSASVGDRVTITCQASQDINNYLNWYQQKPGKAPKLLIYDASNLQTGVPSRFSGSGSGTDFTFTISSLQPEDIATYYCQQFETQSPTFGPGTKVDIK show?
Result: 0.4
